I'd appreciate it if you could supply Emax at 1 µM values for the items below.
Test system: Aorta
TEST SUMMARY: Ex vivo modulatory effect on hUII-induced contractile activity in Sprague-Dawley rat aortic ring at 10^-6 M pretreated for 30 mins followed by hUII addition (reference value: 100 +/- 9 %)
Format: functional
CONDITION LABEL: 0.5 h, dose 1 10^-6M
Please reply with the bare figure in % and do not write the unit itself.

According to the records, this molecule NCCCCN1N=C(/C=C/c2ccc(O)cc2)c2ccc(C(=O)NCC(c3ccccc3)c3ccccc3)cc2N(Cc2ccc(-c3ccccc3)cc2)C1=O displays Emax at 1 µM of 77

Documented Emax at 1 µM of NCCCCN1N=C(/C=C/c2ccc(O)cc2)c2ccc(C(=O)NCc3ccccc3)cc2N(Cc2ccc(-c3ccccc3)cc2)C1=O : 121

The molecule listed as NCCCCN1N=C(CCc2ccc(O)cc2)c2ccc(C(=O)NCCCc3ccccc3)cc2N(Cc2ccc(-c3ccccc3)cc2)C1=O has a reported Emax at 1 µM of 143

Lab book: Emax at 1 µM of CN(Cc1ccccc1)C(=O)c1ccc2c(c1)N(Cc1ccc(-c3ccccc3)cc1)C(=O)N(CCCCN)N=C2/C=C/c1ccc(O)cc1 noted as 61

Reported Emax at 1 µM of NCCCCN1N=C(CCc2ccc(O)cc2)c2ccc(C(=O)NCCOc3ccccc3)cc2N(Cc2ccc(-c3ccccc3)cc2)C1=O : 197

Emax at 1 µM for CN(Cc1ccccc1)C(=O)c1ccc2c(c1)N(Cc1ccc(-c3ccccc3)cc1)C(=O)N(CCCCN)N=C2CCc1ccc(O)cc1 is 70

response.value for COc1ccc(/C=C/C2=NN(CCCCN)C(=O)N(Cc3ccc(-c4ccccc4)cc3)c3cc(C(=O)NCc4ccccc4)ccc32)cc1 (field: Emax at 1 µM) = 85

The molecule listed as NCCCCN1N=C(/C=C/c2ccc(O)cc2)c2ccc(C(=O)NCCCc3ccccc3)cc2N(Cc2ccc(-c3ccccc3)cc2)C1=O shows Emax at 1 µM equal to 123

Sure, the documented Emax at 1 µM for COc1ccc(/C=C/C2=NN(CCCCN)C(=O)N(Cc3ccc(-c4ccccc4)cc3)c3cc(C(=O)NCCCc4ccccc4)ccc32)cc1 is 252

###

SYSTEM: Guanine nucleotide-binding protein G(q) subunit alpha (Homo sapiens)
TEST SUMMARY: Antagonist activity at URP-activated RLucII-tagged Galpha-q (unknown origin) expressed in HEK293 cells co-expressing human UT/GFP10-tagged G-gamma by BRET assay (reference value: 7.33 +/- 0.10)
Type: cell-based
REPORTED ENDPOINT: EC50 (nM)
Value expressed in nM; do not type the unit.

Assay Guanine nucleotide-binding protein G(q) subunit alpha (Homo sapiens), sample NCCCCN1N=C(/C=C/c2ccc(O)cc2)c2ccc(C(=O)NCc3ccccc3)cc2N(Cc2ccc(-c3ccccc3)cc2)C1=O , EC50 read: 17

Item CN(Cc1ccccc1)C(=O)c1ccc2c(c1)N(Cc1ccc(-c3ccccc3)cc1)C(=O)N(CCCCN)N=C2CCc1ccc(O)cc1 ; assay system Guanine nucleotide-binding protein G(q) subunit alpha (Homo sapiens); EC50 reported as 28.2

Record NCCCCN1N=C(CCc2ccc(O)cc2)c2ccc(C(=O)NCCCc3ccccc3)cc2N(Cc2ccc(-c3ccccc3)cc2)C1=O / Guanine nucleotide-binding protein G(q) subunit alpha (Homo sapiens), EC50 recorded as 18.6

Measured EC50 (Guanine nucleotide-binding protein G(q) subunit alpha (Homo sapiens)), entry NCCCCN1N=C(/C=C/c2ccc(O)cc2)c2ccc(C(=O)NCC(c3ccccc3)c3ccccc3)cc2N(Cc2ccc(-c3ccccc3)cc2)C1=O : 25.1

EC50 value, target or system Guanine nucleotide-binding protein G(q) subunit alpha (Homo sapiens), for COc1ccc(/C=C/C2=NN(CCCCN)C(=O)N(Cc3ccc(-c4ccccc4)cc3)c3cc(C(=O)NCc4ccccc4)ccc32)cc1 : 43.7

Item NCCCCN1N=C(CCc2ccc(O)cc2)c2ccc(C(=O)NCCOc3ccccc3)cc2N(Cc2ccc(-c3ccccc3)cc2)C1=O was tested on Guanine nucleotide-binding protein G(q) subunit alpha (Homo sapiens); the reported EC50 is 34.7

###

SYSTEM: Beta-arrestin-1 (Homo sapiens, UniProt P49407)
Sequence (P49407 whole entry): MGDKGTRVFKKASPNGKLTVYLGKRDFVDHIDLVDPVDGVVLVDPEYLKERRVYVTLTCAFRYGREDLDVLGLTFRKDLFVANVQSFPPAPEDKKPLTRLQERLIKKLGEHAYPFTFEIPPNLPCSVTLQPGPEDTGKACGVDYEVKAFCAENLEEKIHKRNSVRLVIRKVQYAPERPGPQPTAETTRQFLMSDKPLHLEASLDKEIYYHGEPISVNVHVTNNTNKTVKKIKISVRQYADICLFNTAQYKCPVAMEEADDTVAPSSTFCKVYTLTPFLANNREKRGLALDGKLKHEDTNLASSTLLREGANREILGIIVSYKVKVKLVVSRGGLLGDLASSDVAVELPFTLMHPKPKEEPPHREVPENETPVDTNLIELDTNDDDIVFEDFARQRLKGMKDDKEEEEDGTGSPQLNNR
TEST SUMMARY: Agonist activity at RLucII/GFP10-tagged beta-arrestin-1 (unknown origin) recruitment expressed in HEK293 cells co-expressing human UT assessed as beta-arrestin recruitment by BRET assay
pEC50: −log10 of the molar value.
Param threshold (7) applies to pEC50; output rule met when value >= threshold, rule not met when value < threshold.

Problem: Entry NCCCCN1N=C(CCc2ccc(O)cc2)c2ccc(C(=O)NCCCc3ccccc3)cc2N(Cc2ccc(-c3ccccc3)cc2)C1=O : is its pEC50 no less than 7?
Result: rule not met

Problem: Form field: pEC50 at least 7? Entry: COc1ccc(/C=C/C2=NN(CCCCN)C(=O)N(Cc3ccc(-c4ccccc4)cc3)c3cc(C(=O)NCc4ccccc4)ccc32)cc1
Result: rule met

Problem: Tell me whether pEC50 is at least 7 here: NCCCCN1N=C(/C=C/c2ccc(O)cc2)c2ccc(C(=O)NCc3ccccc3)cc2N(Cc2ccc(-c3ccccc3)cc2)C1=O
Result: rule not met

Problem: Dear colleague, could you confirm whether CN(Cc1ccccc1)C(=O)c1ccc2c(c1)N(Cc1ccc(-c3ccccc3)cc1)C(=O)N(CCCCN)N=C2CCc1ccc(O)cc1 has pEC50 at or above 7?
Result: rule not met

Problem: Could you verify whether the entry COc1ccc(/C=C/C2=NN(CCCCN)C(=O)N(Cc3ccc(-c4ccccc4)cc3)c3cc(C(=O)NCCCc4ccccc4)ccc32)cc1 shows pEC50 of no less than 7?
Result: rule not met

Problem: Quick check: does COc1ccc(/C=C/C2=NN(CCCCN)C(=O)N(Cc3ccc(-c4ccccc4)cc3)c3cc(C(=O)NCCOc4ccccc4)ccc32)cc1 have pEC50 greater than or equal to 7?
Result: rule met

Problem: // inclusive: pEC50 at least 7? input: NCCCCN1N=C(/C=C/c2ccc(O)cc2)c2ccc(C(=O)NCCCc3ccccc3)cc2N(Cc2ccc(-c3ccccc3)cc2)C1=O
Result: rule not met

Problem: Given the entry NCCCCN1N=C(CCc2ccc(O)cc2)c2ccc(C(=O)NCCOc3ccccc3)cc2N(Cc2ccc(-c3ccccc3)cc2)C1=O , answer whether its pEC50 meets or surpasses 7.
Result: rule not met

Problem: Threshold query (pEC50 >= 7) on CC(C)[C@H](NC(=O)[C@@H]1CSSC[C@H](NC(=O)[C@H](CC(=O)O)NC(=O)[C@@H]2CCCN2C(=O)[C@@H](NC(=O)[C@@H](N)CCC(=O)O)[C@@H](C)O)C(=O)N[C@@H](Cc2ccccc2)C(=O)N[C@@H](Cc2c[nH]c3ccccc23)C(=O)N[C@@H](CCCCN)C(=O)N[C@@H](Cc2ccc(O)cc2)C(=O)N1)C(=O)O
Result: rule met

###

SYSTEM: Guanine nucleotide-binding protein G(q) subunit alpha (Homo sapiens, UniProt P50148)
Sequence (P50148 whole entry): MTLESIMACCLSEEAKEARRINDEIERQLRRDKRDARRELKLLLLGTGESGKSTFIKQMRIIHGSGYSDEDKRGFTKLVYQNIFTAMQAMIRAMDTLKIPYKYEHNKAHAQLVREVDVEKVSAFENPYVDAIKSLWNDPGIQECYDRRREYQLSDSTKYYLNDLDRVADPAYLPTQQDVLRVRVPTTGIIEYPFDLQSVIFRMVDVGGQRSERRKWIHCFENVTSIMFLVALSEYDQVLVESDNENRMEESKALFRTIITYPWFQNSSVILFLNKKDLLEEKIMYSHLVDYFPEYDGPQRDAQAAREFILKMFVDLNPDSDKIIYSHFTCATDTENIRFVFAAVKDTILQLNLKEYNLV
TEST SUMMARY: Agonist activity at RLucII-tagged Galpha-q (unknown origin) expressed in HEK293 cells co-expressing human UT/GFP10-tagged G-gamma assessed as activation of Galpha-q by BRET assay
Assay type: cell-based
So I've got a bunch of molecules here, and I need their EC50 values.

Summary for this molecule, COc1ccc(/C=C/C2=NN(CCCCN)C(=O)N(Cc3ccc(-c4ccccc4)cc3)c3cc(C(=O)NCCOc4ccccc4)ccc32)cc1 : EC50 is > 10 µM

Recorded EC50 (molecule CC(C)[C@H](NC(=O)[C@@H]1CSSC[C@H](NC(=O)[C@H](C)N)C(=O)N[C@@H](Cc2ccccc2)C(=O)N[C@@H](Cc2c[nH]c3ccccc23)C(=O)N[C@@H](CCCCN)C(=O)N[C@@H](Cc2ccc(O)cc2)C(=O)N1)C(=O)O ): 0.00891 µM

// COc1ccc(/C=C/C2=NN(CCCCN)C(=O)N(Cc3ccc(-c4ccccc4)cc3)c3cc(C(=O)NCCCc4ccccc4)ccc32)cc1 : EC50 value = > 10 µM

###

SYSTEM: Guanine nucleotide-binding protein G(q) subunit alpha (Homo sapiens)
TEST SUMMARY: Antagonist activity at URP-activated RLucII-tagged Galpha-q (unknown origin) expressed in HEK293 cells co-expressing human UT/GFP10-tagged G-gamma at 10^-6 M by BRET assay (reference value: 100 +/- 4 %)
Assay type: cell-based
CONDITION LABEL: filed as antagonist, dose 1.0 10^-6M
For each record, write down the corresponding Emax.
Please respond with the number in % and leave the unit unwritten.

Record NCCCCN1N=C(/C=C/c2ccc(O)cc2)c2ccc(C(=O)NCC(c3ccccc3)c3ccccc3)cc2N(Cc2ccc(-c3ccccc3)cc2)C1=O . Reported Emax: 103

// NCCCCN1N=C(CCc2ccc(O)cc2)c2ccc(C(=O)NCCCc3ccccc3)cc2N(Cc2ccc(-c3ccccc3)cc2)C1=O : Emax value = 76

The reported Emax of the compound COc1ccc(/C=C/C2=NN(CCCCN)C(=O)N(Cc3ccc(-c4ccccc4)cc3)c3cc(C(=O)NCc4ccccc4)ccc32)cc1 was 79

According to the records, this compound NCCCCN1N=C(/C=C/c2ccc(O)cc2)c2ccc(C(=O)NCc3ccccc3)cc2N(Cc2ccc(-c3ccccc3)cc2)C1=O displays Emax of 111

Please fill in: Emax reported for CN(Cc1ccccc1)C(=O)c1ccc2c(c1)N(Cc1ccc(-c3ccccc3)cc1)C(=O)N(CCCCN)N=C2CCc1ccc(O)cc1 = 92

The reported Emax of the compound NCCCCN1N=C(CCc2ccc(O)cc2)c2ccc(C(=O)NCCOc3ccccc3)cc2N(Cc2ccc(-c3ccccc3)cc2)C1=O was 81
